# studySystem: T1, DVL3, Q92997
# T1 sequence (Q92997 244-331, limits assumed, looked up): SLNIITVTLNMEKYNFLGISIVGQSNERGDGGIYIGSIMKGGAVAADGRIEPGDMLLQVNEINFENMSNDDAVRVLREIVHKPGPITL
# testProtocol: holdup assay
# Design: key: below the threshold = too weak to quantify, mostly under pKd 3.1 to 4
# measurementContext: plain residues with an end cap or a label only (N-terminal biotin on a linker: ado-ado)
readoutLabel: pKd

Field request: pKd | item: DDASLPVSDV [PLEKHA1, Q9HB21]
below the threshold

Field request: pKd | item: ARGPPRESEV [FAM110D, Q8TAY7]
below the threshold

Field request: pKd | item: EIPAQSPTCV [FZD10, Q9ULW2]
3.6

Field request: pKd | item: LESTTVGTSV [KARS1, Q15046]
below the threshold
